Tested on: NCI/ADR-RES
Experiment: NCI tumour cell line growth inhibition, 48 h
Calls of active or inactive are those of the source. Rule as the data show it: active = GI50 up to about 1.1 µM and inactive = higher.
Recorded metric: GI50

In plain terms, Oc1c(Br)cc(Br)cc1CN(Cc1cc(Br)cc(Br)c1O)C1CCCCC1 has a documented GI50 of 39.9 µM (inactive)

In plain terms, CCSSCS(C)(=O)=O has a documented GI50 of 31.8 µM (inactive)

In plain terms, C=C1C(=O)OC2C1CC(OC(C)=O)/C(C)=C/CCC1(C)OC21 (stereo not given) has a documented GI50 of > 100 µM (inactive)

In plain terms, C=CCOc1ccc2c(C)cc(=O)oc2c1C has a documented GI50 of 46.8 µM (inactive)

In plain terms, CC1=NN(C(=O)CC(=O)Nc2ccccc2C)C(=O)C1/N=N/c1ccc(C(=O)O)cc1 (stereo not given) has a documented GI50 of > 100 µM (inactive)
